Assay: Drug metabolism in Sprague-Dawley rat brain assessed as intact form at 0.07 to 0.11 nmol, iv after 60 mins by HPLC analysis
Format: ADME, organism-based
Conditions: read-out: Stability
Measured Property: remaining at 1 h (%)
Answer format: numeric, % implied, no suffix.

Look up remaining at 1 h for this compound: [11CH3]Oc1ccc(-c2ccccc2N2CCNCC2)cc1
69

* * *

Assay: Drug metabolism in Sprague-Dawley rat plasma assessed as intact form at 0.07 to 0.11 nmol, iv after 60 mins by HPLC analysis
Format: ADME, organism-based
Settings: read-out: Stability
Measured Property: remaining at 1 h (%)
State the answer as a number, implicitly in %.

Any idea what its remaining at 1 h is? The molecule is [11CH3]Oc1ccc(-c2ccccc2N2CCNCC2)cc1
30

Reference source: ChEMBL document CHEMBL2413032
